- test.system: T1, human IL-33 (R&D Systems, #3625-IL-010/CF) (human, UniProt O95760 112-270)
- T1 construct: Commercial recombinant protein; also called hIL-33; interleukin-33
- T1 sequence (looked up): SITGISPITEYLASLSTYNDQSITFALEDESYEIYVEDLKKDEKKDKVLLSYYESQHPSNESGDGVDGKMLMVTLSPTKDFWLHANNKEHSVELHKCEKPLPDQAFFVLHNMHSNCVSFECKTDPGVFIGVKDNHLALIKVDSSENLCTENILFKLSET
- assay.name: SPR 25C, pH6.0 chase, mAb captured
Entries and their t½ Ratio (pH 7.4/pH 6.0)
Would you mind answering with just the numeric figure?

// solved cases for t½ Ratio (pH 7.4/pH 6.0) follow
binder="H4H9676P (antibody, human IgG4, V domains shown, Human IgG4 Fc (H4H)) VH: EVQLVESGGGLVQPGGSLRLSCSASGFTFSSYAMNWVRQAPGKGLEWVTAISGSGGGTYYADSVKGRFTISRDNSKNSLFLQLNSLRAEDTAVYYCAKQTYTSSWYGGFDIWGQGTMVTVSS VL: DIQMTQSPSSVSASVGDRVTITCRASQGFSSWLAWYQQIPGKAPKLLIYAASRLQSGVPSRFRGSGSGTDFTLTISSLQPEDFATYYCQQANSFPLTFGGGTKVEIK" recorded_number=3.5
binder="H4H9672P (antibody, human IgG4, V domains shown, Human IgG4 Fc (H4H)) VH: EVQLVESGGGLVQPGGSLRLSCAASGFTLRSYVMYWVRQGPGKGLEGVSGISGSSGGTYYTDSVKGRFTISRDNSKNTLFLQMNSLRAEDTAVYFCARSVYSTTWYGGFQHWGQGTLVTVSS VL: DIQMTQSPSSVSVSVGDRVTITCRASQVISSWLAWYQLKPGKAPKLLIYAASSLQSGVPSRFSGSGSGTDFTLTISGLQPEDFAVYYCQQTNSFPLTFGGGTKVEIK" recorded_number=4

Ask: Fill blank: measured t½ Ratio (pH 7.4/pH 6.0) of the binder H1M9568N (antibody, mouse IgG1, V domains shown, Human variable domains, mouse IgG1 Fc (H1M)) VH: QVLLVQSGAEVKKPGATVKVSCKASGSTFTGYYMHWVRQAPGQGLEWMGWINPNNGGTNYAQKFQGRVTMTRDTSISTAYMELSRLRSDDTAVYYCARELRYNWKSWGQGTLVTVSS VL: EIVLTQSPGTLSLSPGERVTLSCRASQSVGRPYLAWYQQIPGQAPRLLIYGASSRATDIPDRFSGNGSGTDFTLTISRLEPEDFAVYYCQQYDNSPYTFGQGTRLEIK is ____.
Result: 1.4

Ask: Fill blank: measured t½ Ratio (pH 7.4/pH 6.0) of the binder H4H9662P (antibody, V domains shown, Human IgG4 Fc (H4H)) VH: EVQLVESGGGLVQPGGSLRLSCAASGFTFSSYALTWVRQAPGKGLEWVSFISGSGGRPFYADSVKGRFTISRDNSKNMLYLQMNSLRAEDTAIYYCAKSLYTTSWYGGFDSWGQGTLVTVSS VL: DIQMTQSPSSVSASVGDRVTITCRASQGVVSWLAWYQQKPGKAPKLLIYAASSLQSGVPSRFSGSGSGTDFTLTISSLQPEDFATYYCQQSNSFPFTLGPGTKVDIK is ____.
Result: 3.3

Ask: Fill blank: measured t½ Ratio (pH 7.4/pH 6.0) of the binder H4H9667P (antibody, human IgG4, V domains shown, Human IgG4 Fc (H4H)) VH: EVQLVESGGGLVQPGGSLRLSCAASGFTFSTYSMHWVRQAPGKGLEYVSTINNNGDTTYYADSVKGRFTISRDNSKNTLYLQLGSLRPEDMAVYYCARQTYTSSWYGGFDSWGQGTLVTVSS VL: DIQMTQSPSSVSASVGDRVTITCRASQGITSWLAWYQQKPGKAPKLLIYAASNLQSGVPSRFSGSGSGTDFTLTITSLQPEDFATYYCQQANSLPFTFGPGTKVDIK is ____.
Result: 2.2
